target: UniProt:O15151
measurement.protocol: Inhibition of GST-tagged HDMX expressed in Escherichia coli BL21 (DE3) assessed as inhibition of HDMX binding to p53 protein by fluorescence anisotropy competition method
run.parameters: read-out: IC50
pIC50: −log10 of the molar value.

molecule	modifier.sign	pIC50
CC(C)CCC(=O)NC(CCC(=O)O)CN(C(=O)NCCCC1CCCCC1)C(CCCCN)CN(C(=O)NCCc1ccc(Br)cc1)C(CCC(=O)O)CN(CCC(N)=O)C(=O)NCCCc1ccc(F)cc1 (stereo unspecified)	=	5.57
Cc1ccc(CCNC(=O)N(CC(CCCCN)N(CC(CCC(=O)O)NC(=O)CCC(C)C)C(=O)NCCCC2CCCCC2)C(CCC(=O)O)CN(CCC(N)=O)C(=O)NCCCc2ccc(F)cc2)cc1 (stereo unspecified)	=	5.29
Cc1ccc(CCNC(=O)N(CC(CCCCN)N(CC(CCC(=O)O)NC(=O)CCC(C)C)C(=O)NCCCC2CCCCC2)C(CCC(=O)O)CN(CCC(N)=O)C(=O)NCCCc2ccc(Br)cc2)cc1 (stereo unspecified)	=	5.49
COc1ccc(CCCNC(=O)N(CC(CCC(=O)O)NC(N)=O)C(CCCCN)CN(C(=O)NCCc2ccc(Br)cc2)C(CCC(=O)O)CN(CCC(N)=O)C(=O)NCCCc2ccc(Br)cc2)cc1 (stereo unspecified)	=	4.92
CC(C)CCC(=O)NC(CCC(=O)O)CN(CCC1CCC2(CCCCC2)CC1)C(CCCCN)CN(CCCCc1ccc(Br)cc1)[C@@H](CCC(=O)O)CN(CCCCCc1ccc(F)cc1)CCC(N)=O (stereo partly specified)	<	4.00
NCCCCC(CN(C(=O)NCCc1ccc(Br)cc1)C(CCC(=O)O)CN(CCC(N)=O)C(=O)NCCCc1ccc(Br)cc1)N(CC(CCC(=O)O)NC(N)=O)C(=O)NCCCc1ccc(Br)cc1 (stereo unspecified)	=	5.12

###

target: Protein Mdm4 (Homo sapiens, UniProt O15151)
Sequence (O15151 whole entry): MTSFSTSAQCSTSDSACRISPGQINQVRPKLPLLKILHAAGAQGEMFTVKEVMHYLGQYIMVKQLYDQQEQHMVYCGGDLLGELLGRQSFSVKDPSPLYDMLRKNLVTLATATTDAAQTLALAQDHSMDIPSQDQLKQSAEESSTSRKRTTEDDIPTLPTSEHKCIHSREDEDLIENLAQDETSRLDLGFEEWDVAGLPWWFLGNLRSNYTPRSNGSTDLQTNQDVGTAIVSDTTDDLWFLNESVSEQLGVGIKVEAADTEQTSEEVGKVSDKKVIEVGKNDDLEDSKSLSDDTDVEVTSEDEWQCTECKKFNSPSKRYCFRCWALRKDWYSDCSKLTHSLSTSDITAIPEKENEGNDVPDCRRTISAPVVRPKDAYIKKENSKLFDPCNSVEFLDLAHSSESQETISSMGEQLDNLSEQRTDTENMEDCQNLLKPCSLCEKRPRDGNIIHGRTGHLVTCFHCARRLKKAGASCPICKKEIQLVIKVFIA
measurement.protocol: Inhibition of GST-tagged HDMX expressed in Escherichia coli BL21 (DE3) assessed as inhibition of HDMX binding to p53 protein by fluorescence anisotropy competition method
run.parameters: read-out: IC50
Cut-off 20 µM on IC50: below means Met, at or above means Not met.

compound	assigned.category
NCCCCC(CN(C(=O)NCCc1ccc(Br)cc1)C(CCC(=O)O)CN(CCC(N)=O)C(=O)NCCCc1ccc(Br)cc1)N(CC(CCC(=O)O)NC(=O)[C@@H]1CCCN1)C(=O)NCCCC1CCCCC1 (stereo not given in full)	Met
Cc1ccc(CCCNC(=O)N(CCC(N)=O)CC(CCC(=O)O)N(CC(CCCCN)N(CC(CCC(=O)O)NC(N)=O)C(=O)NCCCC(C)C)C(=O)NCCc2ccc(Br)cc2)cc1 (stereo not given)	Not met
NCCCCC(CN(C(=O)NCCc1ccc(Br)cc1)C(CCC(=O)O)CN(CCC(N)=O)C(=O)NCCCc1ccc(Br)cc1)N(CC(CCC(=O)O)NC(=O)Cc1ccccc1)C(=O)NCCCC1CCCCC1 (stereo not given)	Met
NCCCCC(CN(C(=O)NCCc1ccc(Br)cc1)C(CCC(=O)O)CN(CCC(N)=O)C(=O)NCCCc1ccc(Br)cc1)N(CC(CCC(=O)O)NC(=O)NCC1CCCCC1)C(=O)NCCCC1CCCCC1 (stereo not given)	Met
